- Target or system: N-terminal Xaa-Pro-Lys N-methyltransferase 1 (Homo sapiens)
- Assay text: qHTS Assay for Inhibitors of N-terminal methyltransferase 1 (NTMT1): MTaseGlo Assay Confirmatory Screen, Round 1
- Condition set: Recombinant NTMT1, MTase-Glo SAH luminescence; series mostly up to 57.1 µM
Records with an inconclusive call do not appear. Activity calls are given as the source filed them. Calls come from the whole dose curve; as a rule, active = well fitted inhibition curve with a large enough effect; inconclusive = small, poorly fitted or top-dose-only effect; inactive = no such curve, though single readings can be large or run the other way.
Pick from 1 = active, 0 = inactive when you respond.

Exercise: Called result for Nc1nc(Cl)nc2c1ncn2[C@@H]1O[C@H](CO)[C@H](O)[C@H]1O
Key: 0

Exercise: How did this test come out for C/C(=C\CNc1ncnc2c1ncn2[C@@H]1O[C@@H](CO)[C@@H](O)[C@H]1O)CO ?
Key: 0

Exercise: Record request — test call for Nc1ncnc2c1nc(Cl)n2[C@@H]1O[C@H](CO)[C@@H](O)[C@@H]1O
Key: 0

Exercise: What did the test return for Nc1ncnc2c1ncn2[C@H]1O[C@@H](CNS(=O)(=O)NC(=O)c2cccc(-c3noc(-c4ccccc4F)n3)c2)[C@H](O)[C@@H]1O ?
Key: 1

Exercise: Dear all, I need the recorded test outcome for OC[C@H]1O[C@@H](n2cnc3c(NCc4ccccc4)ncnc32)[C@H](O)[C@@H]1O , thank you.
Key: 0

Exercise: // param item: CSc1ncnc2c1ncn2C1OC(CO)C(O)C1O (centres undefined) ; yields the recorded call
Key: 1

Exercise: Write down the call the test reported for this molecule. Item: O=c1[nH]cnc2c1ncn2[C@@H]1O[C@H](CO)[C@@H](O)[C@H]1O
Key: 0

Exercise: Any idea what this test logged for COc1cc2nc(NC3CCN(C)CC3)nc(N3CCCN(C)CC3)c2cc1OC ?
Key: 0

Exercise: Per the records of this test, what outcome belongs to Nc1ncnc2c1nc(Br)n2C1OC(CO)C(O)C1O (centres undefined) ?
Key: 0

Exercise: What did the test return for CNc1nc(N2CCN(C)CC2)nc2cc(OC)c(OC)cc12 ?
Key: 0

Exercise: Could you please tell me the result logged for Nc1ncnc2c1ncn2[C@@H]1O[C@H](CO)C(O)[C@H]1O (some centres undefined) in this assay?
Key: 0

Exercise: For this molecule, state the assay outcome: Nc1ncnc2c1ncn2[C@@H]1O[C@H](C[C@@H](N)CC[C@H](N)C(=O)O)[C@@H](O)[C@H]1O
Key: 0

Exercise: Tell me the recorded outcome of this test for Nc1nc(Nc2ccccc2)nc2c1ncn2[C@@H]1O[C@@H](CO)[C@H](O)[C@H]1O .
Key: 0

Exercise: What outcome does the record of this test show for C[C@H](Cc1ccccc1)Nc1ncnc2c1ncn2[C@@H]1O[C@H](CO)C(O)[C@H]1O (some centres undefined) ?
Key: 0

Exercise: # outcome recorded in this test, key = COc1cc2c(NC3CCN(C)CC3)cc(N3CCCCN(C)CC3)cc2cc1OCCOCCN(C)C
Key: 0

Exercise: What outcome does the record of this test show for C=CCNc1nc(NC2CCN(C)CC2)c2cc(OC)c(OC)cc2n1 ?
Key: 0

Exercise: Please state the recorded outcome for this molecule: Nc1nc(=S)c2ncn([C@H]3O[C@@H](CO)[C@@H](O)[C@@H]3O)c2[nH]1
Key: 0

Exercise: Please state the recorded outcome for this molecule: COc1cc2c(NC3CCN(C)CC3)nc(N3CCCN(C)CC3)nc2cc1OCCCN1CCOCC1
Key: 0

Exercise: Please indicate how the test categorized COc1cc2nc(N3CCN(C)CC3)nc(NCCN(C)C)c2cc1OC .
Key: 0

Exercise: Hello, I am checking results. What call was entered for Nc1ccc(CCNc2ncnc3c2ncn3C2OC(CO)C(O)C2O)cc1 (centres undefined) ?
Key: 0

Exercise: Tell me the assay call for OCC1OC(n2cnc3c(NO)ncnc32)C(O)C1O (centres undefined) please.
Key: 0

Exercise: Test call, this molecule: COc1cc2nc(N3CCN(C(N)=O)CC3)nc(NC3CC3)c2cc1OC
Key: 0

Exercise: GET /call?item= COc1cc2nc(N3CCN(C)CC3)nc(N3CCOCC3)c2cc1OC returns the recorded outcome of this test.
Key: 0

Exercise: Look up the recorded call for Nc1nc(Nc2ccccc2)nc2c1ncn2[C@@H]1O[C@H](CO)C(O)[C@H]1O (some centres undefined) in this test.
Key: 0

Exercise: Please share the test call associated with COc1cc2c(NC3CCN(C)CC3)nc(N3CCCN(C)CC3)nc2cc1OCCN(C)CCN(C)C .
Key: 0

Exercise: Outcome? NCCNC(=O)Cc1ccc(NC(=O)Cc2ccc(Nc3ncnc4c3ncn4[C@@H]3O[C@H](CO)[C@@H](O)[C@H]3O)cc2)cc1
Key: 0

Exercise: What did this assay record as the result for Nc1nc(Cl)nc2c1ncn2[C@@H]1O[C@H](COP(=O)(O)OP(=O)(O)OP(=O)(O)O)[C@@H](O)[C@H]1O ?
Key: 0

Exercise: I'd appreciate the recorded outcome for COc1cc2c(NC3CCN(C)CC3)nc(N3CCN(C)CC3)nc2cc1OCCCN(C)C from this test.
Key: 0

Exercise: Fill in: this test's call for COc1cc2nc(N3CCCCC3)nc(NC3CCN(Cc4ccccc4)CC3)c2cc1OC is ___
Key: 0

Exercise: Called result for OCC1OC(n2cnc3c(NCc4ccco4)ncnc32)C(O)C1O (centres undefined)
Key: 0

Exercise: Give the logged outcome of this assay for the following molecule: Cn1cnc2c(ncn2[C@@H]2O[C@H](CO)[C@@H](O)[C@H]2O)c1=N
Key: 0

Exercise: State the result this test recorded for COc1cc2c(NC3CCN(C)CC3)nc(N3CCCN(C)CC3)nc2cc1OCCOCCN(C)C .
Key: 0

Exercise: What call does the record list for C[C@@H](Cc1ccccc1)Nc1ncnc2c1ncn2[C@@H]1O[C@H](CO)[C@@H](O)[C@H]1O ?
Key: 0

Exercise: Which outcome was assigned to COC(=O)c1ccc2c(c1)nc(NC(=O)c1ccccc1)n2CCCc1ccccc1 in this test?
Key: 0

Exercise: For CCCCC#Cc1nc(NC)c2ncn([C@@H]3O[C@@H](CO)[C@H](O)[C@H]3O)c2n1 , which call appears in the assay record?
Key: 0

Exercise: Please state the recorded outcome for this molecule: CNC(=O)[C@H]1O[C@H](n2cnc3c(NCc4cccc(I)c4)ncnc32)[C@@H](O)[C@@H]1O
Key: 0

Exercise: Recorded test call requested for COc1cc2nc(N3CC[C@H](N(C)C)C3)nc(NC3CC3)c2cc1OC
Key: 0

Exercise: In this assay, the call recorded for COC1C(CO)OC(n2cnc3c(=O)[nH]cnc32)C1O (centres undefined) was what?
Key: 0

Exercise: Test call for this molecule, please: COc1cc2nc(N3CCCN(C)CC3)nc(NC3CCN(C)C3)c2cc1OC (centres undefined)
Key: 0

###

- Target or system: N-terminal Xaa-Pro-Lys N-methyltransferase 1 (Homo sapiens) (UniProt Q9BV86)
- Sequence (Q9BV86 whole entry, looked up): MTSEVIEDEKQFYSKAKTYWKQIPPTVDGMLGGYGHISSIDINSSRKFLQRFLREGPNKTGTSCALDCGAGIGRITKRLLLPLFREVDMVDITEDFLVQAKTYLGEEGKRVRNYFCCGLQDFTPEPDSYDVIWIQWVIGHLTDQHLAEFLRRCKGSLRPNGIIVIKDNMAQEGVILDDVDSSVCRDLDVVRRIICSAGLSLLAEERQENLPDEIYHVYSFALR
- Assay text: qHTS Assay for Inhibitors of N-terminal methyltransferase 1 (NTMT1): MTaseGlo Assay Confirmatory Screen, Round 1
- Condition set: Recombinant NTMT1, MTase-Glo SAH luminescence; series mostly up to 57.1 µM
Results filed as inconclusive are left out. Calls of active or inactive are those of the source. Calls come from the whole dose curve; as a rule, active = well fitted inhibition curve with a large enough effect; inconclusive = small, poorly fitted or top-dose-only effect; inactive = no such curve, though single readings can be large or run the other way.
The reply should name one outcome from active, inactive

Exercise: Entry C[S+](CC[C@H](N)C(=O)O)C[C@H]1O[C@@H](n2cnc3c(N)ncnc32)[C@H](O)[C@@H]1O (stereo not given in full) : call = ?
Key: inactive

Exercise: Just curious, what result did CCN(CC)c1nc(NC2CCN(C)CC2)c2cc(OC)c(OC)cc2n1 get here?
Key: inactive

Exercise: Fill in: this test's call for COc1cc2nc(NCCN(C)C)nc(NC3CC3)c2cc1OC is ___
Key: inactive

Exercise: GET /call?item= COc1cc2nc(N3CCOCC3)nc(NC3CCN(Cc4ccccc4)CC3)c2cc1OC returns the recorded outcome of this test.
Key: inactive

Exercise: What did the test return for Nc1ncnc2c1ncn2[C@@H]1O[C@H](C(=O)N2CCN(CC(=O)Nc3cccc4c3CNC4=O)CC2)[C@@H](O)[C@H]1O ?
Key: inactive

Exercise: Write down the call the test reported for this molecule. Item: NC(=O)c1ccc[n+]([C@@H]2O[C@H](COP(=O)([O-])OP(=O)(O)OC[C@H]3O[C@@H](n4cnc5c(N)ncnc54)[C@H](O)[C@@H]3O)[C@@H](O)[C@H]2O)c1
Key: inactive

Exercise: Outcome logged for CNc1ncnc2c1ncn2[C@@H]1O[C@H](CO)[C@@H](O)[C@@H]1O in this assay:
Key: inactive

Exercise: Outcome logged for COc1cc2nc(N3CCN(C)CC3)nc(NCCCN(C)C)c2cc1OC in this assay:
Key: inactive

Exercise: What did this assay record as the result for CCNC(=O)[C@H]1O[C@H](n2cnc3c(N)nc(NCCc4ccc(CCC(=O)O)cc4)nc32)[C@@H](O)[C@@H]1O ?
Key: inactive

Exercise: Fill in: this test's call for Nc1ncnc2c1[nH]c(=S)n2C1OC(CO)C(O)C1O (stereo not given) is ___
Key: inactive

Exercise: // param item: COc1cc2nc(N3CCN(C)CC3)nc(NC3CC3)c2cc1OC ; yields the recorded call
Key: inactive

Exercise: Called result for Nc1nc(Cl)nc2c1ncn2[C@@H]1O[C@H](CO)C(O)[C@H]1O (stereo not given in full)
Key: inactive

Exercise: Test call for this molecule, please: CO[C@@H]1[C@@H]2OP(=O)(O)OC[C@H]2O[C@H]1n1c(Sc2ccc(Cl)cc2)nc2c(N)ncnc21
Key: inactive

Exercise: Hello, I am checking results. What call was entered for C[C@H](Cc1ccccc1)Nc1ncnc2c1ncn2[C@@H]1O[C@H](CO)[C@@H](O)[C@H]1O ?
Key: inactive

Exercise: For Cc1cc(C)c(CNC(=O)c2cc(-c3ccc(CN4CCOCC4)cc3)cc3c2cnn3C2CCCC2)c(=O)[nH]1 , which call appears in the assay record?
Key: inactive

Exercise: Hello, I am checking results. What call was entered for NC[C@H]1O[C@@H](n2cnc3c(N)ncnc32)[C@H](O)[C@@H]1O ?
Key: active

Exercise: Test call, this molecule: COc1cc2c(NC3CCN(C(C)C)CC3)nc(N3CCCN(C)CC3)nc2cc1OCCOCCN1CCCC1
Key: inactive

Exercise: Recorded test call requested for Nc1ncnc2c1ncn2[C@H]1O[C@@H](CO)[C@@H](O)[C@H]1N
Key: inactive

Exercise: Which result was noted for this molecule in the test: COc1cc2nc(Nc3ccccc3)nc(NC3CC3)c2cc1OC
Key: inactive

Exercise: Answer briefly: the call reported for CNc1ncnc2c1ncn2[C@@H]1O[C@H](CO)[C@@H](O)[C@H]1O in this assay.
Key: inactive
